- Tested on: human pancreatic cancer cells PANC-1
- procedureSummary: MTT growth inhibition, PANC-1 cells
- Format: cell-based
- runParameters: 72 h after treatment, read-out: Drug concentration (IC50) at which 50% cancer cells survived
readoutKind: pIC50
Give bare numbers, as −log10 of the molar value.

* COc1cccc2c1C(=O)c1c(O)c3c(c(O)c1C2=O)C[C@@](O)(C(C)=O)C[C@@H]3O[C@H]1C[C@H](N)[C@H](O)[C@H](C)O1 [Daunorubicin, reference compound] | 4.26
* CCNC(=O)CC[C@@H](NC(=O)c1cc2cc(Cl)ccc2oc1=O)C(=O)OCC | 4.27
* CCNC(=O)CCC(NC(=O)c1cc2ccccc2oc1=O)C(=O)OC (centres unmarked) | 4.17
* CCNC(=O)CC[C@H](N)C(=O)OCC | 3.40
* CCNC(=O)CC[C@@H](NC(=O)c1cc2cc(Cl)cc(Cl)c2oc1=O)C(=O)OCC | 4.15

Hello, I would appreciate it if you could give pIC50 for each entry below.
1. O=C(O)c1cc2cc(Br)ccc2oc1=O
2. CCNC(=O)CCC(NC(=O)c1cc2cc(F)ccc2oc1=O)C(=O)OCC (stereo in doubt)

Reply:
3.30
4.14

* * *

- Test system: human liver cancer cells SMMC7721 xenograft
- procedureSummary: In-vivo growth of SMMC7721 xenografts in nude mice
- Parameters: species or system BALB/c nude mice
- runParameters: Mus musculus, SMMC-7721, ip; S-7721 xenograft; 60 mg/kg intraperitoneal once a day; vs DMSO solvent control; read-out: Curative effect (inhibition rate %) of tumor weight
I'd appreciate it if you could supply inhibition in vivo at 60 mg/kg values for the items below.
Numbers only, in %.

# annotated cases, reported inhibition in vivo at 60 mg/kg shown
* CCNC(=O)CCC(NC(=O)c1cc2ccccc2oc1=O)C(=O)OCC (stereo not shown) | 60.8
* CCNC(=O)CC[C@H](N)C(=O)OC | 36.6
* CCNC(=O)CC[C@@H](NC(=O)c1cc2cc(Br)cc(Br)c2oc1=O)C(=O)OCC | 57.7

We next turn to a different compound, shown below.
Task item: For human liver cancer cells SMMC7721 xenograft, give inhibition in vivo at 60 mg/kg of the listed compound: CCNC(=O)CC[C@@H](NC(=O)c1cc2cc(Cl)ccc2oc1=O)C(=O)OCC
Reply: 63.2

* * *

- System: human prostate cancer cells PC-3
- procedureSummary: MTT growth inhibition, PC-3 cells
- Format: cell-based
- runParameters: 72 h after treatment, read-out: Drug concentration (IC50) at which 50% cancer cells survived
readoutKind: log10 of IC50 (log10 of the value in µM)
// stored as log10 of IC50 expressed in µM

Check out these entries, answers already filled in.
• CCNC(=O)CC[C@H](N)C(=O)OC = 2.54
• CCNC(=O)CCC(NC(=O)c1cc2cc(F)ccc2oc1=O)C(=O)OCC (stereo in doubt) = 2.10
• O=C(O)c1cc2cc(Cl)cc(Cl)c2oc1=O = 2.49
• O=C(O)c1cc2cc(Br)cc(Br)c2oc1=O = 2.61

Each compound below has a reported value. Please supply its log10 of IC50.
1. CCNC(=O)CCC(NC(=O)c1cc2cc([N+](=O)[O-])ccc2oc1=O)C(=O)OCC (stereo in doubt)
2. CCNC(=O)CC[C@@H](NC(=O)c1cc2cc(Cl)cc(Cl)c2oc1=O)C(=O)OCC
3. CCNC(=O)CC[C@@H](NC(=O)c1cc2cc(Cl)ccc2oc1=O)C(=O)OCC

Reply:
1: 2.23; 2: 1.65; 3: 2.02
